Origin of values: paper PMC7403393

- Test system: SARS-CoV-2
- settings: 5 and 10 µM
Counter-ions that a name gives are not always drawn.
experimental_endpoint: antiviral effect in Caco-2 cells (in words)

>  <molecule>
CCCCOc1ccc(C(=O)CCN2CCCCC2)cc1 [Dyclonine hydrochloride]

>  <experimental_value>
Arbidol-like result

$$$$
>  <molecule>
COc1ncnc(NS(=O)(=O)c2ccc(N)cc2)c1OC

>  <experimental_value>
Arbidol-like result

$$$$
>  <molecule>
C=C1C[C@@H]2[C@H](CC[C@]3(C)C(=O)CC[C@@H]23)[C@@]2(C)C=CC(=O)C=C12

>  <experimental_value>
Arbidol-like result

$$$$

* * *

- System: VeroE6 cells
- settings: VeroE6, no virus, CellTiter Blue
experimental_endpoint: CC50

Quick check: CC50 of Cl.Clc1ccc(Cn2c(CN3CCCC3)nc3ccccc32)cc1 [Clemizole hydrochloride] ?
> 40 µM

* * *

// Inhibition index lookup, one value per entry
- Tested on: SARS-CoV-2
- settings: 10 µM compound, VeroE6, MOI 0.002, 3 days after infection; normalized cell viability relative to 10 µM arbidol
Structures can show the parent of a compound that is named as a salt.
Answer using only a numeral; do not append any unit.

Examples with answers:
>  <compound>
C[C@]12CC[C@H](O)C[C@@H]1CC[C@@H]1[C@@H]2CC[C@]2(C)C(=O)CC[C@@H]12 [Epiandrosterone]

>  <Inhibition index>
1.07

$$$$
>  <compound>
Cl.Clc1ccc(Cn2c(CN3CCCC3)nc3ccccc32)cc1 [Clemizole hydrochloride]

>  <Inhibition index>
1.01

$$$$
>  <compound>
CNCC(O)c1ccc(OC(=O)C(C)(C)C)c(OC(=O)C(C)(C)C)c1 (centres unmarked) [Dipivefrin hydrochloride]

>  <Inhibition index>
1.01

$$$$
>  <compound>
CCN(CC)CCCC(C)Nc1ccnc2cc(Cl)ccc12 (centres unmarked) [Chloroquine diphosphate]

>  <Inhibition index>
1.35

$$$$
>  <compound>
C=C1C[C@@H]2[C@H](CC[C@]3(C)C(=O)CC[C@@H]23)[C@@]2(C)C=CC(=O)C=C12

>  <Inhibition index>
1.10

$$$$
>  <compound>
CCCCOc1cc(C(=O)OCCN(CC)CC)ccc1N [Benoxinate hydrochloride]

>  <Inhibition index>
1.19

$$$$

Inhibition index for CC(=O)[C@H]1CC[C@H]2[C@@H]3CC=C4C[C@@H](O)CC[C@]4(C)[C@H]3CC[C@]12C ?
1.66

Same question, CN(C)CCCN1c2ccccc2Sc2ccccc21 [Promazine hydrochloride] this time
1.16

Queued: CN1CCN2c3ncccc3Cc3ccccc3C2C1 (centres unmarked)
1.03

Then Nc1c2c(nc3ccccc13)CCCC2 [Tacrine hydrochloride] ?
1.44

Then OCCN1CCN(CCCN2c3ccccc3C=Cc3ccccc32)CC1 [Opipramol dihydrochloride] ?
1.05
